Target: GBS 0582 (Streptococcus agalactiae, UniProt Q8E126)
Sequence (Q8E126 1-311): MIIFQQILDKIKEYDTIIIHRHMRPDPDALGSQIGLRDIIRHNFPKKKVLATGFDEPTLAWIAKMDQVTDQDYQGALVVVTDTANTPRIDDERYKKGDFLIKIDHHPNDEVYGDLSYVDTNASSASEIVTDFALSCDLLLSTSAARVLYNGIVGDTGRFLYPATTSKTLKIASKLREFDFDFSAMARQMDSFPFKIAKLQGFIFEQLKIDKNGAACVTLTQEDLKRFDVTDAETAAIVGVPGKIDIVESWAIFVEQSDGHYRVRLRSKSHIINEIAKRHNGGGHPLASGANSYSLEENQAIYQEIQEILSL
Experiment: biochemical
Parameters: species or system S. agalactiae
Details: read-out: IC50
PARAMETER: pIC50
Here pIC50 is given on a logarithmic scale as minus log10 of the concentration in mol/L.

pIC50 in this record for Nc1ncnc2c1ncn2[C@@H]1O[C@H](COP(=O)(O)OP(=O)(O)O)[C@@H](O)[C@H]1O : 3.39

---

Biological target: GBS 0307 (Streptococcus agalactiae, UniProt Q8E1N5, T550A)
Sequence (Q8E1N5 whole entry T550A): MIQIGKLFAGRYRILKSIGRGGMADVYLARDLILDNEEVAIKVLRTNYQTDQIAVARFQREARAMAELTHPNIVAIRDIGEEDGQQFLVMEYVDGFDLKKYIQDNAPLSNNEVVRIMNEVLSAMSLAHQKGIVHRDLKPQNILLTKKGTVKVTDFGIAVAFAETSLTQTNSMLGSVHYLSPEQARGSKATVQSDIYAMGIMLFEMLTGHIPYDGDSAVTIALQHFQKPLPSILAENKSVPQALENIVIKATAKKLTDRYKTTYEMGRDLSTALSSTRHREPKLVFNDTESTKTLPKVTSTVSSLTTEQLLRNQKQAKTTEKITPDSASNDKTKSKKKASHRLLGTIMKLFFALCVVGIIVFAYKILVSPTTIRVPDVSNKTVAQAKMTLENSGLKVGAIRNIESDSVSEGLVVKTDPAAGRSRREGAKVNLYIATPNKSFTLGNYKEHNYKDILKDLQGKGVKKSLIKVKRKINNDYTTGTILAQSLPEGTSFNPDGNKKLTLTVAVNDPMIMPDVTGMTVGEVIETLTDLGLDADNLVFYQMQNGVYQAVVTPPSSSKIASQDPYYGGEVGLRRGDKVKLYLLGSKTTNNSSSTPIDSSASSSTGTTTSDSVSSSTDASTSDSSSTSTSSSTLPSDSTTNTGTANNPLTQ
Assay: biochemical
PARAMETER: pIC50
Here pIC50 is given on a logarithmic scale as minus log10 of the concentration in mol/L.

pIC50 in this record for CN[C@@H]1C[C@H]2O[C@@](C)([C@@H]1OC)n1c3ccccc3c3c4c(c5c6ccccc6n2c5c31)C(=O)NC4 [Staurosporine] : 7.64

Data provenance is patent US20100261618A1.
